System: MS2 coat protein
method: apparent KD of MS2 coat protein; designed switch direction (-1 OFF switch, 1 ON switch): -1; higher = weaker reporter binding
experimental parameters: input ligand: none
Class 1 (yes): apparent KD of MS2 coat protein at least 90 nM. Class 0 (no): apparent KD of MS2 coat protein below 90 nM.

CCGCUCCGUGUAGGAUAUUGGCGUGCCCUGCGCCGAGAAGGACAUGAGGAUCACCCAUGUAUGUUAUUAUCACGCGUGGCGCAU [Design 77] (Eterna round: R96, puzzle: Exclusion NG 1)
0 (no)
AGUAACCGUCACGAAAGUGAUGGUUACACAAGCAAAUGUACAUGAGGAUCACCCAUGUCCUCAUUUGUUCGUCUUAU [Sensor 3 - 47] (Eterna round: R96, puzzle: Sensor v3, turn-off variant 2)
1 (yes)
CUUGUGUGAGGAUAUGAAUUACCUGGUCAAACAGGCUCCUGUCAGAAGGCACAUGAGGAUCACCCAUGUGGGCA [Dibilela] (Eterna round: R97, puzzle: Exclusion 4)
1 (yes)

Is the recorded value of apparent KD of MS2 coat protein equal to or greater than 90 nM for this sequence? AGAUGCUCAAGUCGACAUGAGGAUCACCCAUGUACAGUUAAUGAGGAUAUCCGAGAUAAAUAAUAGGAGAAGGCAUGAUCAUGA [Ex NG3 #4] (Eterna round: R96, puzzle: Exclusion NG 3)
1 (yes)

Is the recorded value of apparent KD of MS2 coat protein equal to or greater than 90 nM for this sequence? CGGGCGUGAGGAUAUCCAUCUGGAUCAGACUAGAUCCUGAUGGAGAAGGCACAUGAGGAUCACCCAUGUACCCG [Eli 4x 4.50] (Eterna round: R97, puzzle: Exclusion 4)
0 (no)

Is the recorded value of apparent KD of MS2 coat protein equal to or greater than 90 nM for this sequence? CGUAGCAAUGUGAGGAUAUCUAGAGCUUCGGCUCUAGAGAAGGCACAUGAGGAUCACCCAUGUGAUUAGCUACG [BmEx4/9-B1] (Eterna round: R97, puzzle: Brourd's mod of Exclusion 4)
1 (yes)

Is the recorded value of apparent KD of MS2 coat protein equal to or greater than 90 nM for this sequence? GGCAUCGGAGGAUAUACUUAUGGUGAUACCAGAAGCUUUCUACUUGAGGAUCACCCAAGUAGAAGGCCGAUGCC [jl-ex2.4.86 ViennaUCT mod] (Eterna round: R97, puzzle: Exclusion 2)
0 (no)

Is the recorded value of apparent KD of MS2 coat protein equal to or greater than 90 nM for this sequence? UUUUUAUAUGAAGGAUAUACUUAACAUGAGGAUCACCCAUGUGGUGUUGUGAGUGAGUGAGUUUAGUAGAAGGUCAAGGAUUUU [JMF's solution 35] (Eterna round: R96, puzzle: Exclusion NG 2)
1 (yes)

Is the recorded value of apparent KD of MS2 coat protein equal to or greater than 90 nM for this sequence? UGUAAGGCAGAGGAUAUGGUUACUAGACGAGUACCAGAAGGCUGCACAUGAGGAUCACCCAUGUGAAAUCCACU [Eternabot (L1) Solution 72] (Eterna round: R97, puzzle: Exclusion 6)
0 (no)

Is the recorded value of apparent KD of MS2 coat protein equal to or greater than 90 nM for this sequence? UUCUUUAUACGAGGAUAUCAUACAUGAGGAUCACCCAUGUGGCUGGGUCUGUUUUUAUAUAUUAUUGAGAAGGCGUUUUUCUUU [JR_ExcNG2_Sub074] (Eterna round: R96, puzzle: Exclusion NG 2)
0 (no)

Is the recorded value of apparent KD of MS2 coat protein equal to or greater than 90 nM for this sequence? UAAUGUAUAUAGGAUAUCUAGCUGGAAACAGCUAGAGAAGGAUGUACAUGAGGAUCACCCAUGUAAAUCAAUAG [Ex6/9-A2] (Eterna round: R97, puzzle: Exclusion 6)
0 (no)
